# key: entry, value: TGI
- System: UACC-257 melanoma
- ASSAY_PROTOCOL: NCI tumour cell line growth inhibition, 48 h

COMPOUND	TARGET_SYSTEM	TGI
O=[N+]([O-])c1ccc2[nH]c(O)c(N=NC(=S)Nc3ccccc3)c2c1	UACC-257 melanoma	27.4 µM
CC1CC(=O)c2c(ccc3c2C(=O)c2cccc(O)c2C3=O)C1 (stereo unspecified)	UACC-257 melanoma	19.2 µM
BrC1=CN2C[n+]3cc(Br)c4ccccc4c3N=C2c2ccccc21	UACC-257 melanoma	48.8 µM
COC(=O)C1=C(c2ccc(Cl)cc2)C(O)N=C(NN)N1 (stereo unspecified)	UACC-257 melanoma	> 100 µM
Cc1nc(N(CCO)CCO)c2sc(=S)n(-c3ccccc3)c2n1	UACC-257 melanoma	> 100 µM
O=C1C(NS(=O)(=O)c2ccccc2)=C(N(Cc2ccccc2)Cc2ccccc2)C(=O)c2ccccc21	UACC-257 melanoma	> 100 µM
N#CC(C(=O)CCC(=O)Nc1ccc(Cl)c(Cl)c1)c1ccc(Cl)cc1 (stereo unspecified)	UACC-257 melanoma	> 100 µM
Cc1ccc(N2C(=O)C(=O)N(/N=C3\C(=O)Nc4ccccc43)C2=S)cc1	UACC-257 melanoma	> 100 µM

So what TGI did CCOC(=O)/C=C1\Oc2ccccc2C1(C)O (stereo unspecified) get with UACC-257 melanoma? > 100 µM

What measured TGI is associated with "CCCCCCCCCCCCCCCCCc1nnc(N)o1" on UACC-257 melanoma? > 100 µM

What value of TGI on UACC-257 melanoma does Cn1nc(C(=O)N2CC(CCl)c3c2cc([N+](=O)[O-])c2ccccc32)cc1NC(=O)Nc1cc(C(=O)N2CC(CCl)c3c2cc([N+](=O)[O-])c2ccccc32)nn1C (stereo unspecified) have? > 100 µM

Find the measured TGI: item "Oc1ccc(O)c2c1C1(Cl)C(Cl)=C(Cl)C2(Cl)C1(Cl)Cl" , target or system UACC-257 melanoma. 17.4 µM

----------
- System: UACC-62 melanoma
- ASSAY_PROTOCOL: NCI tumour cell line growth inhibition, 48 h
ENDPOINT: TGI

Guide cases for TGI, answers given:
MOLECULE	TGI
COc1cc2nc(N3CCC[C@@H](NC4=CC(=O)c5ccccc5C4=O)C3)nc(N)c2cc1OC	4.25 µM
COc1ccc(C2C(Cl)C(=O)N2NC(=O)c2ccccc2O)cc1OC (stereo unspecified)	> 100 µM
COC(=O)C1=C(O)C(C(=O)OC)[C@@]2(O)[C@@H](C(=O)OC)CC[C@@H]1[C@@H]2C(=O)OC (stereo partly specified)	> 100 µM
NCCCCCNOCCCN	> 100 µM
C=C(C)C(=O)O[C@H]1CC2=CC(CC(C)=C[C@H]3OC(=O)C(=C)C13)OC2=O (stereo partly specified)	38.8 µM
CC1(C)CC2(C)ON=C(c3ccccc3)N2c2ccccc2N1 (stereo unspecified)	27.9 µM

Tell me the measured TGI of "Nc1cc(-c2ccccc2)n(C(=O)Nc2ccc(Oc3ccccc3)cc2)n1" , please. > 100 µM

// returns reported TGI for input "Cc1nc(Nc2nc3ccccc3[nH]2)[nH]c(=O)c1CCO" > 100 µM

Query (molecule): "COC(=O)CCC1(O)C=CC(=O)C=C1" ; field requested: TGI 58 µM

Dear colleague, I am looking for the recorded TGI of the following molecule: "Cn1c2ccccc2c2[nH]c3ccccc3c(=O)c21" > 100 µM

Using the record for "Cn1c(=O)sc2cc(C(=S)N3CCN(c4ccccc4)CC3)ccc21" , report its TGI. > 100 µM

----------
- Test system: SN12C renal
- ASSAY_PROTOCOL: NCI tumour cell line growth inhibition, 48 h; in the data active = GI50 below about 0.43 µM; inactive = the rest
Allowed answers: active, inactive

These solved cases illustrate the format of a correct answer.
COMPOUND	GROUP_LABEL
Cc1cc(Cl)ccc1Nc1nc(C(F)(F)F)ccc1C(=O)Nc1cccc(C(F)(F)F)c1	inactive
CCc1c2c(nc3ccc(OCc4ccc(B5OC(C)(C)C(C)(C)O5)cc4)cc13)-c1cc3c(c(=O)n1C2)COC(=O)[C@]3(O)CC	active
CN(C)N=Nc1nn(C(=O)Nc2ccc(Cc3ccccc3)cc2)c2ccccc12	inactive

Name the outcome recorded for "CNC(=O)c1cncc(/C=C/c2c(Cl)cccc2Cl)c1" in the assay. inactive

So what was the verdict on "O=C(Cn1c2ccccc2c2ccncc21)N/N=C\c1ccc2ccccc2c1" in this test? inactive

Hi, do you know how Cn1ncnc1C1c2n[nH]c(=O)c3cc(F)cc(c23)NC1c1ccc(F)cc1 (configuration not stated) came out in this test? inactive

Field: outcome | Entry: "COc1ccc(C=C2C(=O)NC(=O)NC2=O)cc1OCc1ccccc1" inactive

----------
- Test system: NCI-H522 lung
- ASSAY_PROTOCOL: NCI tumour cell line growth inhibition, 48 h; in the data active = GI50 below about 0.43 µM; inactive = the rest
Thanks in advance; please answer with one of these: Yes (active), No (inactive)

Past entries and their recorded results:
COMPOUND	GROUP_LABEL
O=C1NC(SCc2ccc(F)cc2)=N/C1=C/c1cccc(OCc2ccc(Cl)cc2)c1	No
CCc1c2c(nc3ccc(OCc4ccc(B5OC(C)(C)C(C)(C)O5)cc4)cc13)-c1cc3c(c(=O)n1C2)COC(=O)[C@]3(O)CC	Yes
Oc1ccc(O)c2c1C1(Cl)C(Cl)=C(Cl)C2(Cl)C1(Cl)Cl	No
O=C(NN1C(=O)CSC12CCC(c1ccccc1)CC2)c1[nH]c2ccc(F)cc2c1-c1ccccc1 (stereo unspecified)	No
Cc1c(C(N)=O)sc2c1c(=O)n(Cc1ccccc1)c1nnc(S(=O)(=O)CC(=O)Nc3ccc(Cl)cc3)n21	No

Moving on to the next compound.
Which result was noted for this compound in the test: "O=C1COCCN1c1ccc(NCc2cn(C(=O)c3ccc(Cl)cc3)c3ccccc23)cc1" No

----------
- Tested on: MALME-3M melanoma
- ASSAY_PROTOCOL: NCI tumour cell line growth inhibition, 48 h
Measured TGI values are reported for all entries that follow.

Answered cases to consult:
MOLECULE	RESULT_VALUE
C=CC[C@H]1[C@H](O[Si](C)(C)C(C)(C)C)C=CC(=O)[C@@H]1CC(=O)OCC	25.9 µM
O=C(Cn1c2ccccc2c2ccncc21)N/N=C\c1ccc2ccccc2c1	45.6 µM
NNC(=S)N/N=C(/C(=O)Nc1ccc([N+](=O)[O-])cc1)c1nc2ccc([N+](=O)[O-])cc2[nH]c1=O	> 100 µM
CCOC(=O)C(=O)Nc1cccc(C)c1C	> 100 µM
CNC(=O)c1cncc(/C=C/c2c(Cl)cccc2Cl)c1	> 25 µM

Which TGI value is on record for "Clc1ccc(/C=C/c2nc(Cl)c(-c3ccc(Cl)cc3)c(Cl)n2)cc1" ? > 100 µM

Recorded TGI for CC1(C)CC2(C)ON=C(c3ccccc3)N2c2ccccc2N1 (centres undefined) , please? 55.3 µM

Given the entry Cn1nc(C(=O)N2CC(CCl)c3c2cc([N+](=O)[O-])c2ccccc32)cc1NC(=O)Nc1cc(C(=O)N2CC(CCl)c3c2cc([N+](=O)[O-])c2ccccc32)nn1C (centres undefined) , report its measured TGI. > 100 µM

Consider the molecule "COc1ccccc1N1C(=O)CC(=O)N(C(=O)CCCCCCCCC(=O)N2C(=O)CC(=O)N(c3ccccc3OC)C2=S)C1=S" and give its measured TGI. > 100 µM

----------
- System: A498 renal
- ASSAY_PROTOCOL: NCI tumour cell line growth inhibition, 48 h
ENDPOINT: TGI (µM)
Please state the figure in µM; there is no need to write the unit.

Worked cases, answers included:
COMPOUND	ENDPOINT	RESULT_VALUE
CC1CC(=O)c2c(ccc3c2C(=O)c2cccc(O)c2C3=O)C1 (stereo not given)	TGI	27.5
CC1=C(C)C(=O)C(C2=C(C3=CC(=O)C(C)=C(C)C3=O)C(=O)c3ccccc3C2=O)=CC1=O	TGI	18.4
CCc1c2c(nc3ccc(OCc4ccc(B5OC(C)(C)C(C)(C)O5)cc4)cc13)-c1cc3c(c(=O)n1C2)COC(=O)[C@]3(O)CC	TGI	0.376
CC(C)=CCc1cc(C2COc3cc4c(c(O)c3C2=O)C=CC(C)(C)O4)c(O)cc1O (stereo not given)	TGI	33.2
CC(=O)NC1C(OCc2ccccc2)OC(CO)C(O)C1OCC(=O)N1CCCC1C(=O)NC(CCC(=O)NCCCCCNc1c2ccccc2nc2cccc([N+](=O)[O-])c12)C(N)=O (stereo not given)	TGI	0.345

Request: TGI, test system A498 renal, entry COC1C(O)C(C)OC(O[C@@H]2C[C@H]3CC[C@@H]4[C@H](CC[C@]5(C)[C@@H](C6=CC(=O)OC6)CC[C@]45O)[C@@]3(C)[C@H](O)C2)C1O (stereo not given in full) 0.0871

Item: "N#CCN(Cc1ccccc1)[C@@H]1CCC[C@]1(O)C#Cc1ccc2c(c1)OCO2" Test system: A498 renal Read-out: TGI Value: ? 35.1

Hi! What's the reported TGI for CCN(CC)CCC(=O)O[C@H]1CC[C@H](CC(C)[C@H]2CC(=O)C(C)C=C(C)[C@H](OC(=O)CCN(CC)CC)C(OC)C(=O)[C@@H](C)CC(C)/C=C/C=C/C=C(C)C(OC)CC3CC[C@H](C)[C@](O)(O3)C(=O)C(=O)N3CCCCC3C(=O)O2)CC1OC (stereo not given in full) on A498 renal? 1.11

// provenance: PubChem BioAssay (NCI)
